test system: proteasome in Molt-4 cells; assay: Cellular assay for chymotrypsin-like activity of proteasome in Molt-4 cell line, EC50 determination; assay type: cell-based, human; settings: MeOSuc-FLF-AFC substrate, 15 minutes preincubation at 37° C., read-out: MOLT4 (EC50)
// EC50 lookup, one value per entry
measure_name: EC50

mol: COC(=O)CCCCCCC(=O)N[C@@H](CCCNC(=N)N[N+](=O)[O-])C(=O)N[C@@H](CC(C)C)B(O)O
assayed_target: proteasome in Molt-4 cells
result: > 10000 nM
--
mol: CCS(=O)(=O)NCCCCCC(=O)N[C@@H](CCCNC(=N)N[N+](=O)[O-])C(=O)N[C@@H](CC(C)C)B1O[C@@H]2C[C@@H]3C[C@@H](C3(C)C)[C@]2(C)O1
assayed_target: proteasome in Molt-4 cells
result: > 10000 nM
--
mol: CC(C)C[C@H](NC(=O)[C@H](CCCNC(=N)N[N+](=O)[O-])NC(=O)CCCCCCCCCN1C(=O)c2ccccc2C1=O)B(O)O
assayed_target: proteasome in Molt-4 cells
result: < 200 nM
--
mol: CC(=O)NCCCCCC(=O)N[C@@H](CCCNC(=N)N[N+](=O)[O-])C(=O)N[C@@H](CC(C)C)B(O)O
assayed_target: proteasome in Molt-4 cells
result: > 10000 nM
--
mol: CC(C)C[C@H](NC(=O)[C@H](CCCNC(=N)N[N+](=O)[O-])NC(=O)CCCCCCCCC#N)B(O)O
assayed_target: proteasome in Molt-4 cells
result: > 10000 nM
--
mol: CC(C)C[C@H](NC(=O)[C@H](CCCNC(=N)N[N+](=O)[O-])NC(=O)CCCCCCCCCCCN1C(=O)c2ccccc2C1=O)B1O[C@@H]2C[C@@H]3C[C@@H](C3(C)C)[C@]2(C)O1
assayed_target: proteasome in Molt-4 cells
result: < 200 nM
--
mol: CC(C)C[C@H](NC(=O)[C@H](CCCNC(=N)N[N+](=O)[O-])NC(=O)CCCCCNS(=O)(=O)c1ccccc1)B1O[C@@H]2C[C@@H]3C[C@@H](C3(C)C)[C@]2(C)O1
assayed_target: proteasome in Molt-4 cells
result: < 2000 nM
--
mol: CC(C)C[C@H](NC(=O)[C@H](CCCNC(=N)N[N+](=O)[O-])NC(=O)CCCCCCCCCCC#N)B(O)O
assayed_target: proteasome in Molt-4 cells
result: < 10000 nM
--
mol: CC(C)C[C@H](NC(=O)[C@H](CCCNC(=N)N[N+](=O)[O-])NC(=O)CCCCCCCCCCC#N)B1O[C@@H]2C[C@@H]3C[C@@H](C3(C)C)[C@]2(C)O1
assayed_target: proteasome in Molt-4 cells
result: < 200 nM
--
mol: CC(C)C[C@H](NC(=O)[C@H](CCCNC(=N)N[N+](=O)[O-])NC(=O)CCCCCCCCC#N)B1O[C@@H]2C[C@@H]3C[C@@H](C3(C)C)[C@]2(C)O1
assayed_target: proteasome in Molt-4 cells
result: < 200 nM
--
mol: CC(C)C[C@H](NC(=O)[C@H](CCCNC(=N)N[N+](=O)[O-])NC(=O)CCCCCCCCCN1C(=O)c2ccccc2C1=O)B1O[C@@H]2C[C@@H]3C[C@@H](C3(C)C)[C@]2(C)O1
assayed_target: proteasome in Molt-4 cells
result: < 200 nM

Hello, the source for this data is patent US7223745B2, in case you need it.
